assay: NCI Yeast Anticancer Drug Screen. Data for the mec2-1 strain (AID 157); settings: S. cerevisiae mec2-1 strain, at 50.0 µM, active compounds read high
Compounds without any hit were thinned out: in the full panel of roughly 79,000, 15% have a hit.
For each of the compounds below, state its growth inhibition.
Give bare numbers, in %.

COMPOUND: CCCC/C=C(\C)C(C)(C#N)C(=O)OCC (stereo unspecified)
MEASURED METRIC: growth inhibition
UNIT OF MEASUREMENT: %
MEASURED NUMBER: -0.4
--
COMPOUND: N/N=C1\C(=O)N(C2CCCCC2)C(=O)C1C(=O)NC1CCCCC1 (stereo unspecified)
MEASURED METRIC: growth inhibition
UNIT OF MEASUREMENT: %
MEASURED NUMBER: -1.2
--
COMPOUND: Nc1nnc2nc(C(C(=O)/C=C\c3cccc(O)c3)c3nc4nnc(N)n4[nH]c3=O)c(=O)[nH]n12
MEASURED METRIC: growth inhibition
UNIT OF MEASUREMENT: %
MEASURED NUMBER: 15.1
--
COMPOUND: CCOc1cccc(N)c1
MEASURED METRIC: growth inhibition
UNIT OF MEASUREMENT: %
MEASURED NUMBER: -20.7
--
COMPOUND: O=C1Cc2c(-c3cccs3)cc(-c3ccccc3)nc2-c2ccccc2N1
MEASURED METRIC: growth inhibition
UNIT OF MEASUREMENT: %
MEASURED NUMBER: -3.9

Here is another compound to look at.
input: Return reported growth inhibition; argument: NCc1c(Cl)c(Cl)c(Cl)c(CN)c1Cl
output: -14.2
